system: 422866-222-R5-J1-PDC complex spheroids viability; assay: Anticancer human tumor 422866-222-R5-J1-PDC patient-derived pancreatic adenocarcinoma cell line growth inhibition [RAS]; conditions: curve of first compound; second compound 0.316 µM
List of IC50 values.

Reference set, count: 8
- compound: "CC1(C)CCC(Nc2ncc(C(F)(F)F)c(-c3c[nH]c4c(P(C)(C)=O)c(C#N)ccc34)n2)CN1 (stereo not given) + C#Cc1c(F)ccc2cc(O)cc(-c3ncc4c(N5CC6CCC(C5)N6)nc(OCC56CCCN5CC(F)C6)nc4c3F)c12"
  IC50: "0.0079 µM"
- compound: "Cc1nc(N2CCC3(CC2)COC(C)C3N)c(CO)nc1Sc1ccnc(N)c1Cl (stereo not given) + C=CC(=O)N1CCN(c2nc(OCC3CCCN3C)nc3c(F)c(-c4nc(N)cc(C)c4C(F)(F)F)c(Cl)cc23)C(C)C1"
  IC50: "< 0.0316 µM"
- compound: "O=C(c1ccc(F)c(F)c1Nc1ccc(I)cc1F)N1CC(O)([C@@H]2CCCCN2)C1 + C#Cc1c(F)ccc2cc(O)cc(-c3ncc4c(N5CC6CCC(C5)N6)nc(OCC56CCCN5CC(F)C6)nc4c3F)c12"
  IC50: "0.0198 µM"
- compound: "CCC(CC)c1cc(NC2CCC(N)C2)n2nccc2n1 (stereo not given) + C=CC(=O)N1CCN(c2nc(OCC3CCCN3C)nc3c(F)c(-c4nc(N)cc(C)c4C(F)(F)F)c(Cl)cc23)C(C)C1"
  IC50: "< 0.0316 µM"
- compound: "CC1(O)CCCC1n1c(=O)c(C(F)F)cc2cnc(NC3CCN(S(C)(=O)=O)CC3)nc21 (stereo not given) + C=CC(=O)N1CCN(c2nc(OCC3CCCN3C)nc3c(F)c(-c4nc(N)cc(C)c4C(F)(F)F)c(Cl)cc23)C(C)C1"
  IC50: "< 0.0316 µM"
- compound: "C[C@@H](NC(=O)c1ncnc(N)c1Cl)c1ncc(C(=O)Nc2cc(C(F)(F)F)c(Cl)cn2)s1 + C#Cc1c(F)ccc2cc(O)cc(-c3ncc4c(N5CC6CCC(C5)N6)nc(OCC56CCCN5CC(F)C6)nc4c3F)c12"
  IC50: "> 10 µM"
- compound: "CC(C)n1nc(-c2ccc3oc(N)nc3c2)c2c(N)ncnc21 + C=CC(=O)N1CCN(c2nc(OCC3CCCN3C)nc3c(F)c(-c4nc(N)cc(C)c4C(F)(F)F)c(Cl)cc23)C(C)C1"
  IC50: "< 0.000316 µM"
- compound: "CC(C)NCC(C(=O)N1CCN(c2ncnc3c2C(C)CC3O)CC1)c1ccc(Cl)cc1 (stereo not given) + C#Cc1c(F)ccc2cc(O)cc(-c3ncc4c(N5CC6CCC(C5)N6)nc(OCC56CCCN5CC(F)C6)nc4c3F)c12"
  IC50: "> 10 µM"

Test system 422866-222-R5-J1-PDC complex spheroids viability; read-out IC50; what value for CC1(C)CCC(Nc2ncc(C(F)(F)F)c(-c3c[nH]c4c(P(C)(C)=O)c(C#N)ccc34)n2)CN1 (stereo not given) + C=CC(=O)N1CCN(c2nc(OCC3CCCN3C)nc3c(F)c(-c4nc(N)cc(C)c4C(F)(F)F)c(Cl)cc23)C(C)C1 ? < 0.000949 µM

Test system 422866-222-R5-J1-PDC complex spheroids viability; read-out IC50; what value for NC1c2ccccc2OC12CCN(c1cnc3c(N4CCCc5ncccc54)n[nH]c3n1)CC2 (stereo not given) + C#Cc1c(F)ccc2cc(O)cc(-c3ncc4c(N5CC6CCC(C5)N6)nc(OCC56CCCN5CC(F)C6)nc4c3F)c12 ? < 0.0316 µM

---

test system: 422866-222-R5-J1-PDC complex spheroids viability; assay: Anticancer human tumor 422866-222-R5-J1-PDC cell line growth inhibition [RAS]; settings: second compound 0.1 µM; first compound 0.1 µM; stronger effect = lower value;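 note: spheroids exposed to compounds for 7 days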;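 for viability, T/C: 100% = DMSO vehicle control viability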
List of viability, T/C values.
Please respond with the number in % and leave the unit unwritten.

Reference set, count: 10
- compound: "O=C(c1ccc(F)c(F)c1Nc1ccc(I)cc1F)N1CC(O)([C@@H]2CCCCN2)C1 + C=CC(=O)N1CCN(c2nc(OCC3CCCN3C)nc3c(F)c(-c4nc(N)cc(C)c4C(F)(F)F)c(Cl)cc23)C(C)C1"
  unit.abbreviation: "%"
  viability, T/C: 13.8
- compound: "Nc1ccn(C2OC(CO)C(O)C2(F)F)c(=O)n1 (centres undefined) + C#Cc1c(F)ccc2cc(O)cc(-c3ncc4c(N5CC6CCC(C5)N6)nc(OCC56CCCN5CC(F)C6)nc4c3F)c12"
  unit.abbreviation: "%"
  viability, T/C: 37.6
- compound: "Cc1nc(N2CCC3(CC2)COC(C)C3N)c(CO)nc1Sc1ccnc(N)c1Cl (centres undefined) + C#Cc1c(F)ccc2cc(O)cc(-c3ncc4c(N5CC6CCC(C5)N6)nc(OCC56CCCN5CC(F)C6)nc4c3F)c12"
  unit.abbreviation: "%"
  viability, T/C: 52.5
- compound: "CC(C)n1nc(-c2ccc3oc(N)nc3c2)c2c(N)ncnc21 + C=CC(=O)N1CCN(c2nc(OCC3CCCN3C)nc3c(F)c(-c4nc(N)cc(C)c4C(F)(F)F)c(Cl)cc23)C(C)C1"
  unit.abbreviation: "%"
  viability, T/C: 11.3
- compound: "Nc1ccn(C2OC(CO)C(O)C2(F)F)c(=O)n1 (centres undefined) + C=CC(=O)N1CCN(c2nc(OCC3CCCN3C)nc3c(F)c(-c4nc(N)cc(C)c4C(F)(F)F)c(Cl)cc23)C(C)C1"
  unit.abbreviation: "%"
  viability, T/C: 16.4
- compound: "Cc1nc(N2CCC3(CC2)COC(C)C3N)c(CO)nc1Sc1ccnc(N)c1Cl (centres undefined) + C=CC(=O)N1CCN(c2nc(OCC3CCCN3C)nc3c(F)c(-c4nc(N)cc(C)c4C(F)(F)F)c(Cl)cc23)C(C)C1"
  unit.abbreviation: "%"
  viability, T/C: 15.1
- compound: "CC(=O)OC12COC1CC(O)C1(C)C(=O)C(O)C3=C(C)C(OC(=O)C(O)C(NC(=O)OC(C)(C)C)c4ccccc4)CC(O)(C(OC(=O)c4ccccc4)C21)C3(C)C (centres undefined) + C=CC(=O)N1CCN(c2nc(OCC3CCCN3C)nc3c(F)c(-c4nc(N)cc(C)c4C(F)(F)F)c(Cl)cc23)C(C)C1"
  unit.abbreviation: "%"
  viability, T/C: 21
- compound: "NC1c2ccccc2OC12CCN(c1cnc3c(N4CCCc5ncccc54)n[nH]c3n1)CC2 (centres undefined) + C#Cc1c(F)ccc2cc(O)cc(-c3ncc4c(N5CC6CCC(C5)N6)nc(OCC56CCCN5CC(F)C6)nc4c3F)c12"
  unit.abbreviation: "%"
  viability, T/C: 43.3
- compound: "C=CC(=O)Nc1cc(Nc2nccc(-c3cn(C)c4ccccc34)n2)c(OC)cc1N(C)CCN(C)C + C=CC(=O)N1CCN(c2nc(OCC3CCCN3C)nc3c(F)c(-c4nc(N)cc(C)c4C(F)(F)F)c(Cl)cc23)C(C)C1"
  unit.abbreviation: "%"
  viability, T/C: 17.6
- compound: "CCC(CC)c1cc(NC2CCC(N)C2)n2nccc2n1 (centres undefined) + C=CC(=O)N1CCN(c2nc(OCC3CCCN3C)nc3c(F)c(-c4nc(N)cc(C)c4C(F)(F)F)c(Cl)cc23)C(C)C1"
  unit.abbreviation: "%"
  viability, T/C: 24.1

Now, please, on to the next compound.
Test system 422866-222-R5-J1-PDC complex spheroids viability; read-out viability, T/C; what value for C=CC(=O)Nc1cc(Nc2nccc(-c3cn(C)c4ccccc34)n2)c(OC)cc1N(C)CCN(C)C + C#Cc1c(F)ccc2cc(O)cc(-c3ncc4c(N5CC6CCC(C5)N6)nc(OCC56CCCN5CC(F)C6)nc4c3F)c12 ? 58.2

---

List of IC50 values.
Test system: 422866-222-R5-J1-PDC complex spheroids viability
Experiment: Anticancer human tumor 422866-222-R5-J1-PDC cell line growth inhibition [RAS];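 note: spheroids exposed to compounds for 7 days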
Settings: curve of first compound; second compound 0.1 µM
Source text: RAS pathway inhibitors in Combinations in Complex Spheroids A high-throughput screen of multi-cell type tumor spheroids was designed to identify active combinations of RAS pathway inhibitors and targeted small molecules. Complex spheroids include a stromal component modeled by human endothelial cells (HUVEC) and fibroblasts modeled by human mesenchymal stem cells (MSCs). […] Compounds. […] If the clinical Cmax for an agent had not been determined, the highest concentration tested was 10 microM. […]

Reference set, count: 4
- molecule: "CC1(O)CCCC1n1c(=O)c(C(F)F)cc2cnc(NC3CCN(S(C)(=O)=O)CC3)nc21 (stereo not given) + C=CC(=O)N1CCN(c2nc(OCC3CCCN3C)nc3c(F)c(-c4nc(N)cc(C)c4C(F)(F)F)c(Cl)cc23)C(C)C1"
  IC50: "< 31.6 nM"
- molecule: "CCc1c2c(nc3ccc(O)cc13)-c1cc3c(c(=O)n1C2)COC(=O)[C@]3(O)CC + C=CC(=O)N1CCN(c2nc(OCC3CCCN3C)nc3c(F)c(-c4nc(N)cc(C)c4C(F)(F)F)c(Cl)cc23)C(C)C1"
  IC50: "< 0.949 nM"
- molecule: "C[C@@H](NC(=O)c1ncnc(N)c1Cl)c1ncc(C(=O)Nc2cc(C(F)(F)F)c(Cl)cn2)s1 + C=CC(=O)N1CCN(c2nc(OCC3CCCN3C)nc3c(F)c(-c4nc(N)cc(C)c4C(F)(F)F)c(Cl)cc23)C(C)C1"
  IC50: "< 31.6 nM"
- molecule: "CC(Nc1ccc2c(c1)OCCn1cc(N3C(=O)OCC3C(F)F)nc1-2)C(N)=O (stereo not given) + C=CC(=O)N1CCN(c2nc(OCC3CCCN3C)nc3c(F)c(-c4nc(N)cc(C)c4C(F)(F)F)c(Cl)cc23)C(C)C1"
  IC50: "< 31.6 nM"

Now, please, on to the next molecule.
Given the molecule CCc1c2c(nc3ccc(O)cc13)-c1cc3c(c(=O)n1C2)COC(=O)[C@]3(O)CC + C#Cc1c(F)ccc2cc(O)cc(-c3ncc4c(N5CC6CCC(C5)N6)nc(OCC56CCCN5CC(F)C6)nc4c3F)c12 , what is its reported IC50? 2.74 nM
